Values were extracted from patent US9096593B2.

Entries and their IC50 values follow.
Tgt: CYP3A4(BFC) (Homo sapiens (Human))
Sequence (P08684 whole entry): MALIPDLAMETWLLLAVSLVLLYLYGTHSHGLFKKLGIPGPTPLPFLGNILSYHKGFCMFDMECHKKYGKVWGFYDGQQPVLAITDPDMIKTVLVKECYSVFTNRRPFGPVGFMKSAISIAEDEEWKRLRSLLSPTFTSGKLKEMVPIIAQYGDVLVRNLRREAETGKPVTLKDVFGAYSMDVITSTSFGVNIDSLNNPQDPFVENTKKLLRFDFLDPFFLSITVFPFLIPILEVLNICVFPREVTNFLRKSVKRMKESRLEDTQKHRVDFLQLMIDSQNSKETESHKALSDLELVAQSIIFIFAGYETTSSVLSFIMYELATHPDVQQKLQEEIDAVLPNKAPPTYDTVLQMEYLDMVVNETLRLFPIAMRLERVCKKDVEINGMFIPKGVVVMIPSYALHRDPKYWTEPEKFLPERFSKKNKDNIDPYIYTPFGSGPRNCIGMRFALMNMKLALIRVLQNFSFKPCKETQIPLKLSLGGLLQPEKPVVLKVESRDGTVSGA
Assay Comment: CYP enzyme inhibition, fluorescent substrate
Settings: read-out: Cyp IC50 (μM) 3A4(BFC); BFC substrate
Procedure: CYP (Cytochrome P450) enzymes are the major drug metabolizing enzymes present in the liver. The inhibition of CYP enzyme activity (IC50) for each of CYP1A2, CYP2C19, CYP2C9, CYP2D6, CYP3A4(BFC) and CYP3A4(BQ) is determined for compounds, where inhibition of metabolism of a known substrate leads to a decrease in the fluorescence of the metabolized product. The fluorescence of the product is monitored as a function of compound concentration. […]

INSERT INTO measurements (chemical_structure, readout_value) VALUES
  ('CCS(=O)(=O)Nc1ccccc1CNc1ccc(Cc2c[nH]c3ncc(C)cc23)c(F)n1', '< 5 µM');

INPUT: Identify measured IC50 obtained with CYP3A4(BFC) (Homo sapiens (Human)) for `Cc1cnc2[nH]cc(Cc3ccc(NCc4ccnc(C)c4)nc3F)c2c1` .
OUTPUT: < 5 µM

INPUT: Identify measured IC50 obtained with CYP3A4(BFC) (Homo sapiens (Human)) for `Cc1cnc2[nH]cc(Cc3cnc(NCc4cccc(C)n4)nc3)c2c1` .
OUTPUT: < 5 µM

INPUT: Identify measured IC50 obtained with CYP3A4(BFC) (Homo sapiens (Human)) for `COc1ncc(F)cc1CNc1ncc(Cc2c[nH]c3ncc(C)cc23)cn1` .
OUTPUT: > 10 µM
